- TARGET DESC: Neu5Ac(a2-3)Gal(b1-4)Glc
- RUN DESCRIPTION: glycan array binding signal (z-score within array); higher = stronger binding
- CONDITION INFO: glycan notation: IUPAC condensed, linker removed
This is one part of a sample in which the strongest signals are shown more often than they occur.
REPORTED ENDPOINT: glycan array binding signal (z-score)

binder="SAG3 (Toxoplasma gondii), Q9BJ39 (protein) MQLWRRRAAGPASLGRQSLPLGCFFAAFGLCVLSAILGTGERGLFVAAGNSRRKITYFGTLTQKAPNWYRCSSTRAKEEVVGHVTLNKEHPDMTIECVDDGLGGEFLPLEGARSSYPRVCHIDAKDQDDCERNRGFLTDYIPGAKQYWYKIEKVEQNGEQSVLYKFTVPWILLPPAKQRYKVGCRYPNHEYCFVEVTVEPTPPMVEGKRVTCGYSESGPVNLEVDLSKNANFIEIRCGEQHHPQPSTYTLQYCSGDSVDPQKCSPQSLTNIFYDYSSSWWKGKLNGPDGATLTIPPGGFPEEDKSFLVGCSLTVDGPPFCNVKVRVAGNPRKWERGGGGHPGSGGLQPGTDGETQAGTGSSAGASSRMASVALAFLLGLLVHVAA" reported_endpoint="glycan array binding signal (z-score)" experimental_value=-0.168
binder="CBM32-4 (Clostridium perfringens), P26831 (protein) MGSSHHHHHHSSGLVPRGSHMASVYEPSLVDAYVGDDGAKKAVDGDLKTRVKFLGAPSTGDTIVYDLGQEILVDNLKYVVLDTEVDHVRDGKIQLSLDGETWTDAINIGDGVENGVDDMFSTPLKNGYKHGNQSGGIVPIDSAYVEGDNLNQKARYVRILFTAPYRHRWTVINELMINNGEYIPTVNDPT" reported_endpoint="glycan array binding signal (z-score)" experimental_value=-0.183
binder="BC2L-D C-terminal domain (Burkholderia cenocepacia), Q39MQ9_BURS3 (protein) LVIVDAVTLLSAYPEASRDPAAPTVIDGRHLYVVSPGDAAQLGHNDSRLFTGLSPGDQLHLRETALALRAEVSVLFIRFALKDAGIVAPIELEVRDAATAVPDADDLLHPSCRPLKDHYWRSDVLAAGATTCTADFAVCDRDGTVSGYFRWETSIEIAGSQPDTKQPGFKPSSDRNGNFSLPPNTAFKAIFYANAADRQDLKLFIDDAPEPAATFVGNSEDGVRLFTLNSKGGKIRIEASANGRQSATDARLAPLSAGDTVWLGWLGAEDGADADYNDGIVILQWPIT" reported_endpoint="glycan array binding signal (z-score)" experimental_value=-0.248
